ratio of amounts bound vs CE115HA000 listing for selected binders.
- SYSTEM TESTED: T1, CD3ε homodimer protein (human, UniProt P07766 23-126, limits assumed, sulfo-tag or biotin label in some ECL assays)
- T1 construct: also called human CD3ε homodimer protein; CD3 (CD3ε)
- T1 sequence (P07766 23-126 limits assumed): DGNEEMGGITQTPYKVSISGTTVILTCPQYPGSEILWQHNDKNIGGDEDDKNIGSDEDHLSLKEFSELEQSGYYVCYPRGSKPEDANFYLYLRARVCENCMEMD
- PROTOCOL: SPR, CD3ε homodimer on chip;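 also: biacore SPR with antibody variants flowed as analyte over amine-coupled CD3ε homodimer on a CM chip, bound amount of each single-residue H chain variant over that of parent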
The response must contain the number and no unit.

BINDER	ratio of amounts bound vs CE115HA000
CE115HA000 H35S (antibody, name in Kabat numbering, V domains shown) VH: QVQLVESGGGVVQPGRSLRLSCAASGFTFSNAWMSWVRQAPGKGLEWVAQIKAKSNNYATYYAESVKGRFTISRDDSKNSLYLQMNSLKTEDTAVYYCRYVHYGAYYGVDAWGQGTTVTVSS VL: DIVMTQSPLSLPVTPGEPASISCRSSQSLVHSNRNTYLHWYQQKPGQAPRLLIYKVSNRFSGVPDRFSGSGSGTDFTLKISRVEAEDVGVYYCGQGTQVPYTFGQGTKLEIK	0.23
CE115HA000 K52bD (antibody, name in Kabat numbering, V domains shown) VH: QVQLVESGGGVVQPGRSLRLSCAASGFTFSNAWMHWVRQAPGKGLEWVAQIKADSNNYATYYAESVKGRFTISRDDSKNSLYLQMNSLKTEDTAVYYCRYVHYGAYYGVDAWGQGTTVTVSS VL: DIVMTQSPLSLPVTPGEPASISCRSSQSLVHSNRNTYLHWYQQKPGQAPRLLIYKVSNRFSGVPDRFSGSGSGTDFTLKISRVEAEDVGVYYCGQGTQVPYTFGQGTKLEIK	0.27

Then this binder:
// query Note down ratio of amounts bound vs CE115HA000 recorded for CE115HA000 Y59A (antibody, name in Kabat numbering, V domains shown) VH: QVQLVESGGGVVQPGRSLRLSCAASGFTFSNAWMHWVRQAPGKGLEWVAQIKAKSNNYATYAAESVKGRFTISRDDSKNSLYLQMNSLKTEDTAVYYCRYVHYGAYYGVDAWGQGTTVTVSS VL: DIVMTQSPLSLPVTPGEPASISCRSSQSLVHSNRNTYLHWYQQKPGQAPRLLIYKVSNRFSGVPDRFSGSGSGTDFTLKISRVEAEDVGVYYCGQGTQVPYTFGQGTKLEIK
// result 0.35

Where do the numbers come from? From patent US20220040297A1.
